experiment: in vivo; details: rat
measurement-name: half-life (h)

molecule	value-unit	recorded-number
C[S+]([O-])CCCCN=C=S (stereo unspecified)	h	2.2

====

assay: clinical; details: human, in vivo

compound	half-life (h)
C[S+]([O-])CCCCN=C=S (stereo unspecified)	1.77

====

assay: Half life in mouse plasma by HPLC method; assay type: ADME, cell-free
Quick list: half-life per entry.

molecule	half-life
CN(C)CCOCCOCCSC(=S)NCCCCSc1nnnn1-c1ccccc1	6 h
CN(C)CCOCCOCCSC(=S)NCCCC[S+](C)[O-] (configuration not stated)	6 h
